Taken from patent US20200308299A1.

Parameter pKd: see the listing below.
Molecular target: T1, human Glypican-1 (UniProt P35052 24-530)
T1 chain: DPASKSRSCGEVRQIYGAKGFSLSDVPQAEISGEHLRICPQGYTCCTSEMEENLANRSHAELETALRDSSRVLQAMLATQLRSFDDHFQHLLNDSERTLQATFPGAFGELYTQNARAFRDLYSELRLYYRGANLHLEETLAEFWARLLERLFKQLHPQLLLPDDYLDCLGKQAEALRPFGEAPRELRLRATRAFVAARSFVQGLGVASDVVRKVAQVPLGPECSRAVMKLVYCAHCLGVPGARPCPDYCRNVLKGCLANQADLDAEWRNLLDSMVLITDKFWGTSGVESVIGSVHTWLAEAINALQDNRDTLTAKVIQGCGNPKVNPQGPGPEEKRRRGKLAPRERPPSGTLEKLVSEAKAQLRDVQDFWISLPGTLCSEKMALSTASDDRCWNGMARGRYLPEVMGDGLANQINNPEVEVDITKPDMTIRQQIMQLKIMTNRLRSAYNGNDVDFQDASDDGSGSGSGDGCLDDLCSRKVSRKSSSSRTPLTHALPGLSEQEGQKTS
Assay: Biacore
Entry type: numeric. Quantity: pKd, the -log10 of concentration in molar units.

| binder | result.number |
| --- | --- |
| anti-Glypican-1 antibody clone K090-01a026 (antibody, V domains shown) VH: QVHLQQSGAELVRPGTSVKMSCKAAGYTFTNYWIGWVKQRPGHGLEWIGDIYPGGGYTHYNEKFKGKATLTADTSSSTAYMQLSSLTSEDSAIYYCARERVYYDGSRFFDVWGAGTTVTVSS VL: DIVMSQSPKFLPVSAGDRVTMTCKASQSVGNNVAWYQQKPGQSPKLLIYYASNRYTGVPDRFTGSGSGTDFTFTISSVQVEDLAVYFCQQHYSSPWTFGGGTKLEIKR | 4.91 |

Dear colleague, please send me the reported pKd for anti-Glypican-1 antibody clone K090-02a010 (antibody, V domains shown) VH: EVKLVESGGGLVKPGGSRKLSCAASGFTFSDYGMHWVRQAPEKGLEWVAYINSGSSTIYYADTVKGRFTISRDNAKNTLFLQMTSLRSGDTAMYYCARHSYYSYDVGGDYVMDYWGQGTSVTVSS VL: DIVLTQSPKFMSTSVGDRVSITCKASQDVGTAVAWYQQKPGQSPKLLIYWASTRHTGVPDRFTGSGSGTDFTLTISNVQSEDLADYFCQQYSSYPLTFGAGTKLEIKR when you can. 8.89

Dear colleague, please send me the reported pKd for anti-Glypican-1 antibody clone K090-01a002 (antibody, V domains shown) VH: EVQLQQSGPELVKPGASVKISCKSSGYSFTRYYMHWVKHSPEKSLEWIGEINPSTGDTTYNQKFKAKATLTVDKSSSTAYMQLKSLTSEDSAVYYCAREKRDDGVLAYWGQGTLVTVSS VL: DIQMTQSPKFLPVSAGDRVTMTCKASQSVGNNVAWYQQKPGQSPKLLIYYASNRYTGVPDRFTGSGSGTDFTFTISSVQVEDLAVYFCQQHYSSPLTFGAGTKLELKR when you can. 8.30
